apparent KD of MS2 coat protein values, listed per item
System: MS2 coat protein
Assay: apparent KD of MS2 coat protein; higher = weaker reporter binding
Conditions: Eterna round: R101; input ligand: none
Reply with just the number (in nM).

Consider the sequence AAAAUGAUUUUAGGAUAUGACUCCGAAACGGAGUCAGAAGGAGGAUCACCCUUUCAAAGCUCAGCGUCGAAAGACGCUGAGCAA [#SharedSequence - ExNG1-20] (puzzle (switch architecture): Exclusion NG 1) and give its measured apparent KD of MS2 coat protein.
201

# get_value(readout='apparent KD of MS2 coat protein', item= AGUGUCAUCGAGAAGGCCUCAAAAUGAGGAUCACCCAUGUUGUAAUAUGGGAGGAUAUCGAUGAUACAGCUACGUUUCGUAGCA [salish99_InSLSSNG1_020 #HINGE] (puzzle (switch architecture): Inverted Small Loop Same State NG 1) )
98.3

Can you share its apparent KD of MS2 coat protein? I mean this sequence: CAGUCGACCAUAACAAGGUCGACUGACUUCUGAGGAUCACCCAGAAGGCGUCACCUAAUAGGUGACGAGGAUAUGGAGUGUAAA [#SharedSequence IExNG# - 7] (puzzle (switch architecture): Inverted Exclusion NG 3)
32

Param item = ACAGGUCGUGAGAAGGCGGAAAGCACCGUCGAAAGACGGUGCAAUUAAGAUCUUCGAGGAUCACCCGAGGAUAUCACGACCUGA [#SharedSequence - IExNG2: 15] (puzzle (switch architecture): Inverted Exclusion NG 2) ; retrieve measured apparent KD of MS2 coat protein.
75.1

====

Test system: MS2 coat protein
Experiment: apparent KD of MS2 coat protein; designed switch direction (-1 OFF switch, 1 ON switch): 1; higher = weaker reporter binding
Conditions: Eterna round: R95; input ligand: FMN 200 uM
Measured Endpoint: apparent KD of MS2 coat protein (µM)
Numeric answer only, unit µM assumed.

Look over these answered cases.
Recorded apparent KD of MS2 coat protein of ACAAGCUUUUUAGGAAGAGAAGAAAGGGAACAUGAGGAUCACCCAUGUAAGUGGAAUGAAGAAGGAGCACGUCUUAU [JR_SHM208A_Sub096] (puzzle: Sensor for hsa-mir-208a) , please.
0.0542

Suppose we examine the sequence UCAAGCGUUUGGCUCGUUUUAUGUUUUGUACAUGAGGAUCACCCAUGUUUUGUACGAUCCAGUUAGAUGGUAUUUUG [JR_SHM208A_Sub039] (puzzle: Sensor for hsa-mir-208a) ; what apparent KD of MS2 coat protein value has been reported?
0.0396

Entry under review: AGGUAACAUGAGGAUCACCCAUGUAAGGUGAACGUAGGAUAUCGAAGAGGUAGAGUAGGACGAGAAGGACGAGGAA [JR_SS1_Sub091] (puzzle: Same State 1) . Reported apparent KD of MS2 coat protein?
0.218

For AUAAAACAUGAGGAUCACCCAUGUCAAUAAAGUCGAGGAUAUGGGCAAAUAAAAUAAGAACCAGAAGGCGAAUAAU [salish99_ss1_r3_042] (puzzle: Same State 1) , what is its reported apparent KD of MS2 coat protein?
0.0332

Please give the measured apparent KD of MS2 coat protein for this sequence: GGCUAUCGCGUACGAUAGCUUAAGCAUGUACAUGAGGAUCACCCAUGUCAUGUACAAGCUUUUUGCUCGGCUUAUUG (puzzle: Sensor for hsa-mir-208a)
0.119

Others:
What does the record list as apparent KD of MS2 coat protein for CGUCCGGCCUGUGCUGGACGGAAGCAUGUACAUGAGGAUCACCCAUGUUCAUGUGCAGGCUUUUUGCUCGUCUUGUG [salish99_mir208a_modof_jandersonlee_005] (puzzle: Sensor for hsa-mir-208a) ?
0.102

GET /values?readout=apparent KD of MS2 coat protein&item= GGGCCAGCUUUUGCUGGGCCUUCGCUUGCACAUGAGGAUCACCCAUGUCGUGUACACGCUUCCUGCCCGUCUUGUUU [Photon Torp-19] (puzzle: Sensor for hsa-mir-208a)
0.024

Please look up its apparent KD of MS2 coat protein: AGUCCAGCCUGAGCUGGACAAAAGCAUGUACAUGAGGAUCACCCAUGUUCAUGUACAAGCUUUUUGCAAGUCAAAAG [Mat - hsa-mir-208a - Mod of JL - 75] (puzzle: Sensor for hsa-mir-208a)
0.337

Would you kindly share the measured apparent KD of MS2 coat protein for AAGAGAGGAAGCGAGGAUAUCGUGGGAGGGACAUGAGGAUCACCCAUGUAGGAUGUUGAGAGGAACGAGAAGGCGCAGGAAAGAA [JR_SS2_Sub074] (puzzle: Same State 2) ?
0.0874

Reported apparent KD of MS2 coat protein, sequence AGAGAACAUGAGGAUCACCCAUGUAGGAUGGGCAUAGGAUAUAGAGGAAUGAGGGAGGAGCUAGAAGGAUGAUGGA [JR_SS1_Sub078] (puzzle: Same State 1) : ____
0.11

====

Tested on: MS2 coat protein
Assay: apparent KD of MS2 coat protein; designed switch direction (-1 OFF switch, 1 ON switch): 1; higher = weaker reporter binding
Conditions: Eterna round: R95; input ligand: microRNA oligo, concentration not stated
Given measured apparent KD of MS2 coat protein, output Y if it is greater than or equal to 20 nM and N if not.

Please review the entries below; each comes with its answer.
Is reported apparent KD of MS2 coat protein greater than or equal to 20 nM here: AAUUUGGGACAUGAGGAUCACCCAUGUAUUAUAAAUGGGACAAGUUUUUUGCUCGUCUUAUACAUGGGUGAAAAUCU [Test] (puzzle: Sensor for hsa-mir-208a version 2)
Y

For this sequence, is measured apparent KD of MS2 coat protein 20 nM or higher? UCUUGGUUUUUGCUCGUUUUUUGUGUUGAACAUGAGGAUCACCCAUGUAUUGUACAAUCCAGUUUAAUAAUGGUCCG [JMF 49] (puzzle: Sensor for hsa-mir-208a)
Y

Assess whether reported apparent KD of MS2 coat protein for AGCUAUCGAAAACGAUAGCAAAAGCAUGUACAUGAGGAUCACCCAUGUCAUGUGCAAGCUUUUUGCUCGUCUUAAAA [Zipper 23 - 4] (puzzle: Sensor for hsa-mir-208a) sits at 20 nM or higher.
N

Further cases:
Is apparent KD of MS2 coat protein for AUAAAACAUGAGGAUCACCCAUGUCAAUAAAGUCGAGGAUAUGGGCAAAUAAAAUAAGAACCAGAAGGCGAAUAAU [salish99_ss1_r3_042] (puzzle: Same State 1) at or above 20 nM?
Y

I'd appreciate it if you could say whether CUGCUACAUGAGGAUCACCCAUGUUGGAGUAAUGCAGGAUAUGUGGGACCAGAAGAUAAAACAGAAGGGCAAGGAG [JR_SS!_Sub007] (puzzle: Same State 1) has apparent KD of MS2 coat protein at least equal to 20 nM.
N

====

apparent KD of MS2 coat protein reference
System: MS2 coat protein
Assay: apparent KD of MS2 coat protein; designed switch direction (-1 OFF switch, 1 ON switch): -1; higher = weaker reporter binding
Conditions: Eterna round: R95; input ligand: none

Below, 3 sequences whose answers are already recorded.
Using the record for GUGGUGGGUUUUCCGAGUGACAUGAGGAUCACCCAUGUGUUAGUUUGAGGUAUCAAGCGAAUGGCUCGUCUUAUGUG [JR_SV3TOV1_Sub046] (puzzle: Sensor v3, turn-off variant 1) , report its apparent KD of MS2 coat protein.
154 nM

Reported apparent KD of MS2 coat protein for ACAAGCUUUUUGUUCGUCUUAUAAUAAUAAAUAAAGAUAACAUGAGGAUCACCCAUGUAACAAAGACGGCCUCAUGU [Sesor Array 19 - Jieux - Sensor v3, turn-off variant 2] (puzzle: Sensor v3, turn-off variant 2) : what is it?
112 nM

What value of apparent KD of MS2 coat protein has been recorded for this entry: AGAAGUAGAAACCGAUCCUACAUGAGGAUCACCCAUGUAGCAAGACGUGCACGCGAAGCUCGUCAGACUACCAGAGG [salish99_TOv1_r3_018] (puzzle: Sensor v3, turn-off variant 1)
50.1 nM

***
Suppose we examine the sequence AGGGAUAAAGGAUAUACAUGAGGAUCACCCAUGUUGAGGAAAGUUAGAUGAGGAGGAAGUAGAAGGUUAGGCGA [JR_Exclu3_Sub086] (puzzle: Exclusion 3) ; what apparent KD of MS2 coat protein value has been reported?
40.4 nM

Would you kindly share the measured apparent KD of MS2 coat protein for GGGCUGUCAGGAUAUACAUGAGGAUCACCCAUGUCGAGCUAUGAUAGGGCAAGAGUAGGUAGAAGGGACGAGAG [JR_Exclu3_Sub043] (puzzle: Exclusion 3) ?
32.7 nM

Need apparent KD of MS2 coat protein of AGUACUUACACGAAAGUGUAAGUACAAUAAGCUUGUGGAACAUGAGGAUCACCCAUGUCCUCAUAAGCUCGUCUUAU [Mat - Sensor v3 - Turn-off var 2 - D28] (puzzle: Sensor v3, turn-off variant 2) , thanks.
14.3 nM

What value of apparent KD of MS2 coat protein has been reported for the following sequence? AUUUUAAUAUAGGAUAUCGAAUUUAUUAUUUAACGAGAAGGAUGAACAUGAGGAUCACCCAUGUGGUAUCAUGG [JL-ex6-3.03] (puzzle: Exclusion 6)
178 nM

Given the entry AGCCCUUGUGUCAGGAUAUGCAUCCUUAAUGGACGGCAGAAGGGACAUGAGGAUCACCCAUGUAAAUAGAAAAU [Sodixeti] (puzzle: Brourd's mod of Exclusion 4) , report its measured apparent KD of MS2 coat protein.
177 nM

Query: apparent KD of MS2 coat protein; subject: CUGAGGUAGCGGUCCUAUGACAUGAGGAUCACCCAUGUACCUUGCUUUGAGCUUUAAGCUCGUCUUAUGAUUCUCGG [Mat - Sensor v3 - turn-off var 1 - JL Mod - D44] (puzzle: Sensor v3, turn-off variant 1)
861 nM

Any idea what apparent KD of MS2 coat protein was measured for UUUAAUUUUUUUUUUUUACAAGCUUUUUGCUCGUCUUAUACAUGAGGAUCACCCAUGUGGGUGAAAGAUAGAUUGUC [JMF's solution 3] (puzzle: Sensor v3, turn-off variant 2) ?
35.8 nM
